Origin of the recorded values: patent US9968619B2

Experiment: Pharmacokinetics and oral bioavailability in dogs
Format: in vivo
Conditions: male, beagle, plasma; dog; 1 mg/kg IV; solution in water:ethanol:PEG400 (60:20:20)
readout.name: Cmax (ng/mL)
// units = ng/mL; emit number, no label

## Task Name the reported Cmax value associated with the molecule Cc1sc2c(c1C)C(c1ccc(Cl)cc1)=N[C@@H](CC(=O)Nc1ccc(O)cc1)c1nnc(C)n1-2 [Compound (1-1), dihydrate]
## Result 0.769
